- assay-name: Stability test in human plasma
- stated-conditions: human, plasma
No end group written: not given here.
measurement-type: remaining at 24 h, 0.4 mg/mL

>>> df
             ordered_residues  measured_result
0  RPPGFSPFR [BK, Bradykinin]             ~50%

###

- assay-name: Stability test in human plasma
- stated-conditions: human, 25% human plasma
measurement-type: remaining at 24 h, 0.4 mg/mL (%)

mol	measured-result
N=C(N)NCCC[C@H](NC(=O)[C@H](Cc1cccs1)NC(=O)[C@H]1CCCCN1C(=O)[C@H](CO)NC(=O)[C@H](Cc1cccs1)NC(=O)CNC(=O)[C@@H]1C[C@@H](O)CN1C(=O)[C@@H]1CCCN1C(=O)[C@H](CCCNC(=N)N)NC(=O)[C@@H](CCCNC(=N)N)NC(=O)CC12CC3CC(CC(C3)C1)C2)C(=O)O	70

###

- assay-name: Stability test in human plasma
- stated-conditions: 25% human plasma, 0.4 mg/mL, 37 °C, up to 24 h; TCA or formic acid/urea procedure depending on peptide; RP-HPLC 223 nm; at least triplicates
Non-standard residues stand in square brackets, D forms with d. Residues, ends and D or L forms follow the SMILES beside them. *: point of attachment. Acetyl(1-adamantyl) = O=C(CC12CC3CC(CC(C3)C1)C2)*; Hyp = O=C(O)[C@@H]1C[C@@H](O)CN1; 2Thi = N[C@@H](Cc1cccs1)C(=O)O; Ac6c = NC1(C(=O)O)CCCCC1
measurement-type: stability in human plasma (in words)

compound	measured-result
N=C(N)NCCC[C@H](NC(=O)C1(NC(=O)[C@@H](Cc2ccccc2)NC(=O)[C@H](CO)NC(=O)[C@H](Cc2cccs2)NC(=O)CNC(=O)[C@@H]2C[C@@H](O)CN2C(=O)[C@@H]2CCCN2C(=O)[C@H](CCCNC(=N)N)NC(=O)[C@@H](CCCNC(=N)N)NC(=O)CC23CC4CC(CC(C4)C2)C3)CCCCC1)C(=O)O [BK-4] ({Acetyl(1-adamantyl)}-[dR]RP[Hyp]G[2Thi]S[dF][Ac6c]R-OH)	most stable
N=C(N)NCCC[C@@H](N)C(=O)N[C@@H](CCCNC(=N)N)C(=O)N1CCC[C@H]1C(=O)N1C[C@H](O)C[C@H]1C(=O)NCC(=O)N[C@@H](Cc1cccs1)C(=O)N[C@@H](CO)C(=O)N[C@H](Cc1ccccc1)C(=O)N1CCCC[C@H]1C(=O)N[C@@H](CCCNC(=N)N)C(=O)O [BK-5] (HELM PEPTIDE1{[dR].R.P.[Hyp].G.[O=C([C@H](Cc1cccs1)N[*:1])[*:2]].S.[dF].[O=C([C@@H]1CCCCN1[*:1])[*:2]].R}$$$$V2.0)	most stable
N=C(N)NCCC[C@@H](N)C(=O)N[C@@H](CCCNC(=N)N)C(=O)N1CCC[C@H]1C(=O)N1C[C@H](O)C[C@H]1C(=O)NCC(=O)N[C@@H](Cc1cccs1)C(=O)N[C@@H](CO)C(=O)N[C@H](Cc1ccccc1)C(=O)NC1(C(=O)N[C@@H](CCCNC(=N)N)C(=O)O)CCCC1 [BK-2] (HELM PEPTIDE1{[dR].R.P.[Hyp].G.[O=C([C@H](Cc1cccs1)N[*:1])[*:2]].S.[dF].[O=C(C1(N[*:1])CCCC1)[*:2]].R}$$$$V2.0)	most stable
